- Target Or System: PDI (Homo sapiens)
- Sequence (P07237 18-508, species assumed): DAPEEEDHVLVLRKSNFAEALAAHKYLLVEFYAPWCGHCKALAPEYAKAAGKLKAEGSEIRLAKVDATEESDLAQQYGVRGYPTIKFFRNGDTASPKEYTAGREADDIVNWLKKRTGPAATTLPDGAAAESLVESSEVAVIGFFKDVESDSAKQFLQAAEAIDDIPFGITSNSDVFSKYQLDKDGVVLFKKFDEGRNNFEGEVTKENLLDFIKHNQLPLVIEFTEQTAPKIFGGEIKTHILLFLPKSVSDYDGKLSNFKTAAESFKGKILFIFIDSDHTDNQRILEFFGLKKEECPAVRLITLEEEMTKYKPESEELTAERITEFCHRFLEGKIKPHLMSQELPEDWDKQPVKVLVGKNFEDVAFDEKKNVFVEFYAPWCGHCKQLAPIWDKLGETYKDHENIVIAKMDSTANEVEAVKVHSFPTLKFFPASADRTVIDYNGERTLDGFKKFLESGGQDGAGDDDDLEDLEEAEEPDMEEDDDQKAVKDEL
- Assay Remarks: PDI activity assay
- Assay type: biochemical
- Measurement Conditions: 100 μM
Property Label: PDI inhibition at 100 μM (%)

Examples with answers:
>>> df
                                   compound                property_label  recorded_number
0  O=C(CSc1nc(O)cc(O)n1)N1c2ccccc2Sc2ccccc21 [B12-5]  PDI inhibition at 100 μM (%)              8.2
1  O=C(COc1ccc(O)cc1)N1c2ccccc2Sc2ccccc21 [B12-4]  PDI inhibition at 100 μM (%)             13.2
2  COc1cc(O)nc(SCC(=O)N2c3ccccc3Sc3ccccc32)n1 [B12-18]  PDI inhibition at 100 μM (%)             12.4
3  CCCn1c(SCC(=O)N2c3ccccc3Sc3ccccc32)nc2ccccc21 [B12-7]  PDI inhibition at 100 μM (%)             30.3
4  CCCc1cc(O)nc(SCC(=O)N2c3ccccc3Sc3ccccc32)n1 [B12-16]  PDI inhibition at 100 μM (%)             11.9
5  O=C(COc1nc2ccccc2s1)N1c2ccccc2Sc2ccccc21 [B12-22]  PDI inhibition at 100 μM (%)             38.5
6  CCCn1c2ccccc2c2nnc(SCC(=O)N3c4ccccc4Sc4ccccc43)nc21 [B12-14]  PDI inhibition at 100 μM (%)             21.4
7  O=C(COc1ccccc1)N1c2ccccc2Sc2ccccc21 [B12-3]  PDI inhibition at 100 μM (%)             10.2

[P] Cc1cc(O)nc(SCC(=O)N2c3ccccc3Sc3ccccc32)n1 [B12-20]
[Q] Cc1nc2ccccc2nc1SCC(=O)N1c2ccccc2Sc2ccccc21 [B12-11]
Exercise: Out of P and Q , name the one with the higher PDI inhibition at 100 μM (%). State the label of the item chosen.
Solution: Q

[A] COc1ccc2nc(SCC(=O)n3c4ccccc4c4ccccc43)nc(C)c2c1 [B12-13*]
[B] O=C(COc1nc2ccccc2s1)n1c2ccccc2c2ccccc21 [B12-8*]
Exercise: Out of A and B , name the one with the higher PDI inhibition at 100 μM (%). State the label of the item chosen.
Solution: A
